molecular target: T1, recombinant cynomolgus CD33 protein (NovoProtein) (cynomolgus); experiment: ELISA, plate coated with recombinant CD33
T1 construct: Bought protein; also called cyno CD33
T1 sequence (chain, as listed by the source limits assumed): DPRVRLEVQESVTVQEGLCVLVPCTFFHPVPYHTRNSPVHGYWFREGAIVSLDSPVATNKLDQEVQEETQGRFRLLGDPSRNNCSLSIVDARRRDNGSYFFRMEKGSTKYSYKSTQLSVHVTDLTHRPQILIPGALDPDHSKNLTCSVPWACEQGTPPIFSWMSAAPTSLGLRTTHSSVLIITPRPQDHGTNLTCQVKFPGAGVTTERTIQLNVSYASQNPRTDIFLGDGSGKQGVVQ
The reader will find reported Relative maximal binding (cyno/human) values listed item by item below.
Keep the answer to the number alone.

Examples with their reported Relative maximal binding (cyno/human) follow.
Binder | Relative maximal binding (cyno/human)
anti-CD33 antibody 6C7H8 (antibody, IgG1, V domains shown, VH/VL only; also called 6C7H8 IgG1; parental antibody) VH: EVQLVESGGGLVQPGGSLRLSCAGSGFTFSNYCMNWVRQAPGKGLEWVAEIRLKSNNYVTNYAASVKGRFTISRDDSKNSVYLQMNSLKTEDTGVYYCTRAGYYVPFAYWGQGTLVTVSS VL: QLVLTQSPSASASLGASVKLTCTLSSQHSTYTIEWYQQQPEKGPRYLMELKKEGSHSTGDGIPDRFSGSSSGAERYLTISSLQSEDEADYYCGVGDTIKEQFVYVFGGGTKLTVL | 0.06
anti-CD33 antibody 6C7H54 (antibody, IgG1, V domains shown, VH/VL only; also called 6C7H54 IgG1; 6C754) VH: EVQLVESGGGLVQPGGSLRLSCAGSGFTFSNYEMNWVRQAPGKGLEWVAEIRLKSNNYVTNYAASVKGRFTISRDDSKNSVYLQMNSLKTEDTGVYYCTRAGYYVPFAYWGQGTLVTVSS VL: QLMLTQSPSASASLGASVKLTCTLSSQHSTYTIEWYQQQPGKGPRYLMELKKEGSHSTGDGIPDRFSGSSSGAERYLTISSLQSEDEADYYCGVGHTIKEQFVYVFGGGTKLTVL | 0.73
anti-CD33 antibody 6C7H5 (antibody, V domains shown, Humanized 6C7; VH/VL only; also called parental humanized antibody) VH: EVQLVESGGGLVQPGGSLRLSCAGSGFTFSNYCMNWVRQAPGKGLEWVAEIRLKSNNYVTNYAASVKGRFTISRDDSKNSVYLQMNSLKTEDTGVYYCTRDGYYVPFAYWGQGTLVTVSS VL: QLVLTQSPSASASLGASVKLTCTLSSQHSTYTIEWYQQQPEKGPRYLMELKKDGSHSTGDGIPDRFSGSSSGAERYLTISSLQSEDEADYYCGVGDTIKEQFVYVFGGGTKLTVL | 0.5
anti-CD33 antibody 6C7H47 (antibody, V domains shown, VH/VL only) VH: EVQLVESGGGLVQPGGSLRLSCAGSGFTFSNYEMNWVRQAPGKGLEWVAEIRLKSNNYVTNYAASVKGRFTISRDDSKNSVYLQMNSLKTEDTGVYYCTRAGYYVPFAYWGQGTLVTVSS VL: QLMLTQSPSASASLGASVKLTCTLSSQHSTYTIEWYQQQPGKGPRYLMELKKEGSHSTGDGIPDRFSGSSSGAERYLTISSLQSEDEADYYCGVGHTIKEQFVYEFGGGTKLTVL | 0.43

Kindly consider the entry below.
response.value for anti-CD33 antibody 6C7H48 (antibody, V domains shown, VH/VL only) VH: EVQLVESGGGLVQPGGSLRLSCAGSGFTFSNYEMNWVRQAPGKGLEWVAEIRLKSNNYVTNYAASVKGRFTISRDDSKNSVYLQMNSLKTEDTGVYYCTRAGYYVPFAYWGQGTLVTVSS VL: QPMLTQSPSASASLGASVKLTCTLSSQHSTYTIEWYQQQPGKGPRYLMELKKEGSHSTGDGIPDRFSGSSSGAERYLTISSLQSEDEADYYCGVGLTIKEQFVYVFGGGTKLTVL (field: Relative maximal binding (cyno/human)) = 0.53
